Reported AC50 for target or system Adenosine receptor A1 (Homo sapiens), by entry. Further: assay procedure not described here.

Study these solved cases before continuing.
{"COMPOUND": "CCCCCCCN(CC)CCCC(O)c1ccc(NS(C)(=O)=O)cc1 (stereo not drawn) [IBUTILIDE]", "AC50": "> 30 µM"}
{"COMPOUND": "CC(Cc1cccc(C(F)(F)F)c1)NCCOC(=O)c1ccccc1 (stereo not drawn)", "AC50": "> 30 µM"}

Note to self: AC50 of CCCNC(=O)NS(=O)(=O)c1ccc(Cl)cc1 [CHLORPROPAMIDE] with Adenosine receptor A1 (Homo sapiens) was > 30 µM

* * *

# Lookup of reported AC50 keyed by entry
MEASUREMENT_TARGET: Thromboxane A2 receptor (Homo sapiens, UniProt P21731)
Sequence (P21731 whole entry): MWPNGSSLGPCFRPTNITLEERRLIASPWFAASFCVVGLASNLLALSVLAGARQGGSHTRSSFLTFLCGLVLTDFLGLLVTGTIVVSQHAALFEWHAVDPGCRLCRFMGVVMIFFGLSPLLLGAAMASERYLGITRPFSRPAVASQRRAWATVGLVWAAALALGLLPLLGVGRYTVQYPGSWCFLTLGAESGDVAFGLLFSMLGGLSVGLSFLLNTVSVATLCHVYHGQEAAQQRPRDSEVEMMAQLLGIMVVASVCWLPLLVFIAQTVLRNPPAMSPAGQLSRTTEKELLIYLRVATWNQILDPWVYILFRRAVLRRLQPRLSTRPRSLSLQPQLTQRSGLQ
Type: functional, cell-based

Known AC50 results, listed for orientation:
{"COMPOUND": "O=C(O)COCCN1CCN(C(c2ccccc2)c2ccc(Cl)cc2)CC1 (centres undefined) [CETIRIZINE]", "AC50": "> 30 µM"}
{"COMPOUND": "O=C1Cc2cc(CCN3CCN(c4nsc5ccccc45)CC3)c(Cl)cc2N1 [ZIPRASIDONE]", "AC50": "> 30 µM"}
{"COMPOUND": "NC[C@H]1CC[C@H](C(=O)Oc2ccc(CCC(=O)O)cc2)CC1 [CETRAXATE]", "AC50": "> 30 µM"}
{"COMPOUND": "CC1(CCN2CCCCC2)C(=O)CCc2ccccc21 (centres undefined) [NEPINALONE]", "AC50": "> 30 µM"}
{"COMPOUND": "CCCCc1oc2ccc(NS(C)(=O)=O)cc2c1C(=O)c1ccc(OCCCN(CCCC)CCCC)cc1 [DRONEDARONE]", "AC50": "14.7 µM"}

Just so you know, measured AC50 for CC(O)(P(=O)(O)O)P(=O)(O)O [ETIDRONIC ACID] came out at > 30 µM

Form: compound = CCCc1nc2c(C)cc(-c3nc4ccccc4n3C)cc2n1Cc1ccc(-c2ccccc2C(=O)O)cc1 ; AC50 = > 1 µM

The measured AC50 associated with CC(=O)NO [ACETOHYDROXAMIC ACID] reads > 30 µM

Record summary for COc1cc(C)c2c(Oc3cccc(C(F)(F)F)c3)c(OC)cc(NC(C)CCCN)c2n1 (centres undefined) [TAFENOQUINE] : reported AC50 = > 3 µM

The compound listed as O=C(O)Cc1ccccc1Nc1c(Cl)cccc1Cl [DICLOFENAC] has a reported AC50 of > 3 µM

* * *

MEASUREMENT_TARGET: Thromboxane A2 receptor (Homo sapiens)
Listed below: AC50 values for each entry.

Completed entries (count: 2):
{"MOLECULE": "CCCC(C)(COC(N)=O)COC(N)=O [MEPROBAMATE]", "AC50": "> 10 µM"}
{"MOLECULE": "CN[C@]1(c2ccccc2Cl)CCCCC1=O", "AC50": "> 30 µM"}

Moving on to another molecule below.
Sample NNC(=O)c1ccncc1 ; AC50 observed: > 30 µM

* * *

MEASUREMENT_TARGET: Alpha-2C adrenergic receptor (Homo sapiens, UniProt P18825); further: assay procedure not described here
Sequence (P18825 whole entry): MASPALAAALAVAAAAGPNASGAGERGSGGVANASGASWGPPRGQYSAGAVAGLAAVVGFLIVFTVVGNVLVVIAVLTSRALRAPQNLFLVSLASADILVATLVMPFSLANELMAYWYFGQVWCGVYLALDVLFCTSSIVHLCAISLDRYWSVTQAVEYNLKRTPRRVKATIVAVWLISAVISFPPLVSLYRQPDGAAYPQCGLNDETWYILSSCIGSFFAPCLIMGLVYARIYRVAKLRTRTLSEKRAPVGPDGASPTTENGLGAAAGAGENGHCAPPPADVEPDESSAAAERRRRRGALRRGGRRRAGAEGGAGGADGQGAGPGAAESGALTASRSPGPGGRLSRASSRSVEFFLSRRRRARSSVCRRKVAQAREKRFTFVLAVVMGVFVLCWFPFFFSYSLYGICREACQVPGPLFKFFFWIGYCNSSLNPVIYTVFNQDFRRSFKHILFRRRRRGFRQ
Format: functional
Overview of recorded AC50 for various compounds

{"COMPOUND": "O=C(O)Cc1ccccc1Oc1ccc(Cl)cc1Cl", "OBSERVED_VALUE": "> 10 µM"}

Sure, the documented AC50 for CCc1nc(N)nc(N)c1-c1ccc(Cl)cc1 is > 30 µM

Lookup result for Cc1cc(C2CCCCC2)n(O)c(=O)c1 ; measured AC50: > 30 µM
